Value source: ChEMBL document CHEMBL3098089

Listed next: entries and their corresponding pKd.
- system: Estrogen receptor (Homo sapiens)
- Sequence (P03372 whole entry): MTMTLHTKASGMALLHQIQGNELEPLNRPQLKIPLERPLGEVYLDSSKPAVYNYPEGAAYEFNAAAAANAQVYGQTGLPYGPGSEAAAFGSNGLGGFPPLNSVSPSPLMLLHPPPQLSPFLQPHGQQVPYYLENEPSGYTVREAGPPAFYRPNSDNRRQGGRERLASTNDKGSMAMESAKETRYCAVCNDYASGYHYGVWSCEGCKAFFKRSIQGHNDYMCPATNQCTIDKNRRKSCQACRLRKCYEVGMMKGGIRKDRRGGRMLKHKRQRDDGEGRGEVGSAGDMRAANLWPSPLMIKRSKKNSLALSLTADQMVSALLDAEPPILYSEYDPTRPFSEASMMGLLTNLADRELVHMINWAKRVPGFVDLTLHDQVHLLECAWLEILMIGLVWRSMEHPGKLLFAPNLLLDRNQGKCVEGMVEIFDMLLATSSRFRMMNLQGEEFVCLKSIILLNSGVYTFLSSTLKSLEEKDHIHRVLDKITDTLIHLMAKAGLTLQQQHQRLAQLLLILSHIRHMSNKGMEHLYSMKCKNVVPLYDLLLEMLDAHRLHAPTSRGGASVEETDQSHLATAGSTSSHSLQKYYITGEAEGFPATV
pKd: −log10 of the molar value.

molecule: CCCOC(=O)[C@H]1CC[C@H]2[C@@H]3CCc4cc(O)ccc4[C@H]3CC[C@]12C
system: Estrogen receptor (Homo sapiens)
relational_operator: =
pKd: 6.49
--
molecule: CC1C[C@H](C)C2(CC[C@H]3[C@@H]4CCc5cc(O)ccc5[C@H]4CC[C@@]32C)O1 (stereo not given in full)
system: Estrogen receptor (Homo sapiens)
relational_operator: =
pKd: 6.80
--
molecule: CC[C@H](C)C1=CC[C@H]2[C@@H]3CCc4cc(O)ccc4[C@H]3CC[C@]12C
system: Estrogen receptor (Homo sapiens)
relational_operator: =
pKd: 6.80
--
molecule: C[C@@H](CCO)C1=CC[C@H]2[C@@H]3CCc4cc(O)ccc4[C@H]3CC[C@]12C
system: Estrogen receptor (Homo sapiens)
relational_operator: =
pKd: 6.49
--
molecule: OC[C@H]1CCC[C@@H](c2ccc(O)cc2)CC1 (racemic)
system: Estrogen receptor (Homo sapiens)
relational_operator: <
pKd: 6.00

* * *

- system: Estrogen receptor beta (Homo sapiens, UniProt Q92731)
- Sequence (Q92731 whole entry): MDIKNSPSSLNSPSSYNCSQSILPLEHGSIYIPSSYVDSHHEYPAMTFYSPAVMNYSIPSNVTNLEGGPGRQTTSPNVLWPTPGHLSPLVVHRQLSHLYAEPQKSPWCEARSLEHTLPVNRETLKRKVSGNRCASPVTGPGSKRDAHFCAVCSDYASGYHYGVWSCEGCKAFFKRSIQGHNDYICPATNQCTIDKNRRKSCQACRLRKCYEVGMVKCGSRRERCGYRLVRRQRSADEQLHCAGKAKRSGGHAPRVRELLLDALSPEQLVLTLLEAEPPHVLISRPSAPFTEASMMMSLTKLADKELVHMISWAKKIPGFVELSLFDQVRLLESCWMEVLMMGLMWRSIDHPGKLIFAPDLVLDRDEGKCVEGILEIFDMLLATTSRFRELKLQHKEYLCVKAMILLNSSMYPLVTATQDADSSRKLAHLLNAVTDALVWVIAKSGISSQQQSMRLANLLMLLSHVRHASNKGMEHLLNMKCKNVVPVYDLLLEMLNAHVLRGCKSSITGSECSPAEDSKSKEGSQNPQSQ

compound: CC1C[C@H](C)C2(CC[C@H]3[C@@H]4CCc5cc(O)ccc5[C@H]4CC[C@@]32C)O1 (some centres undefined)
IC50: 111 nM
--
compound: CC[C@H](C)C1=CC[C@H]2[C@@H]3CCc4cc(O)ccc4[C@H]3CC[C@]12C
IC50: 88 nM
--
compound: C[C@]12CC[C@@H]3c4ccc(O)cc4CC[C@H]3[C@@H]1CC=C2CO
IC50: 6.8 nM
--
compound: C[C@@H](CCO)C1=CC[C@H]2[C@@H]3CCc4cc(O)ccc4[C@H]3CC[C@]12C
IC50: 108 nM

* * *

- system: UniProt:P03372
- Sequence (P03372 whole entry): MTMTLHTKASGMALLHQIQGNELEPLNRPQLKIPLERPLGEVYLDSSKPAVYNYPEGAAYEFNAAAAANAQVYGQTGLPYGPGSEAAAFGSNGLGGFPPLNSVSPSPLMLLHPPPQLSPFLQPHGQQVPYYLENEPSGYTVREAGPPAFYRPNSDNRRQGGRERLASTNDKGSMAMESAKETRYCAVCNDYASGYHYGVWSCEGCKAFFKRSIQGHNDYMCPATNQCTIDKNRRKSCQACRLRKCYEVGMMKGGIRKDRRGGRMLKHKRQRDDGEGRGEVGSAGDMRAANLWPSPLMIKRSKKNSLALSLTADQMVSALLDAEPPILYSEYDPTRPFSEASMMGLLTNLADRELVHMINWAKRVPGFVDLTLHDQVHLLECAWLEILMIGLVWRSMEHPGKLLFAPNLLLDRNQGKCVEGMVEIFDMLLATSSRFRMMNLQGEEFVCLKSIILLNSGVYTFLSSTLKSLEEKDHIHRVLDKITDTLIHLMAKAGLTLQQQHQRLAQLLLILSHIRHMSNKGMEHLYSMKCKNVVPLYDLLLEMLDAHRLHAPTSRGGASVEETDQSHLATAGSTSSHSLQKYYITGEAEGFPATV
pIC50: −log10 of the molar value.
property_label: pIC50

compound: CC1C[C@H](C)C2(CC[C@H]3[C@@H]4CCc5cc(O)ccc5[C@H]4CC[C@@]32C)O1 (some centres not stated)
system: UniProt:P03372
test_result: 6.32
//
compound: CCCOC(=O)[C@H]1CC[C@H]2[C@@H]3CCc4cc(O)ccc4[C@H]3CC[C@]12C
system: UniProt:P03372
test_result: 7.04
